Test: qHTS assay for small molecule agonists of the antioxidant response element (ARE) signaling pathway (AID 651741); further: potency means the concentration at half of the fitted maximal effect
Conditions: HepG2 ARE-bla reporter, beta-lactamase FRET ratio, 16 h; series mostly up to 96 µM
Records with an inconclusive call do not appear. Active and inactive are the calls of the source. The call rests on the fitted dose curve; in most records, active means well fitted activation curve with a large enough effect in the signal ratio; inconclusive means small, poorly fitted or top-dose-only effect, or effect the other way, or a change in a side signal; inactive means flat fitted curve, though single readings scatter; the % refers to the signal ratio.
Measurement Name: Potency

{"columns": ["Compound", "Measured Result"],
 "data": [
  ["CCN(CC)c1ccc2c(C)cc(=O)oc2c1", "37.6 µM (active)"],
  ["COc1ccc([N+](=O)[O-])cc1N", "30.6 µM (active)"],
  ["Cc1ccccc1OCC1CO1 (stereo not given)", "inactive"],
  ["Cc1c(C(=O)O)c(O)cc2c1C(=O)c1c(O)c([C@H]3O[C@H](CO)[C@@H](O)[C@H](O)[C@H]3O)c(O)c(O)c1C2=O", "inactive"],
  ["C/C=C/C=C/C=O", "37.6 µM (active)"]
]}

---

Test: qHTS Assay for Identification of Small Molecule Antagonists for Thrombopoietin (TPO) Signaling Pathway (AID 918); further: potency means the concentration at half of the fitted maximal effect; nearly all actives have a fitted effect of over 60% in size
Conditions: TPO-dependent cell signaling reporter, antagonist mode
Procedure: NIH Molecular Libraries Screening Centers Network [MLSCN] NIH Chemical Genomics Center [NCGC] […] Cells were maintained at 37 C and 5% CO2in RPMI with 10% fetal bovine serum, 0.5 ng/mL murine IL-3, 100U/ml penicillin and 100 ug/ml streptomycin. […] Following 24 hrs of incubation at 37 C and 5% CO2, 4 uL of Steadylite detector mix (PerkinElmer) was added, the plates incubated at room temperature for 10 min and luminescence was measured for 10 s and 2X binning by a ViewLux detector (Perkin Elmer).
Results filed as inconclusive are left out. Active and inactive are the calls of the source. Calls come from the whole dose curve; as a rule, active = well fitted inhibition curve with a large enough effect; inconclusive = small, poorly fitted or top-dose-only effect, or effect the other way, or another doubt; inactive = flat fitted curve, though single readings scatter.
Measured Potency values are reported for all entries that follow.

{"columns": ["Query Smiles", "Potency"],
 "data": [
  ["CN(C)C(=O)/N=N\\C(=O)N(C)C", "10 µM (active)"],
  ["CC[C@H](C)[C@@H]1O[C@]2(CC[C@@H]1C)C[C@H]1C[C@H](CC=C(C)[C@@H](O[C@H]3C[C@H](OC)[C@H](O[C@H]4C[C@H](OC)[C@H](O)[C@H](C)O4)[C@H](C)O3)[C@@H](C)C=CC=C3CO[C@@H]4[C@@H](O)C(C)=C[C@H](C(=O)O1)[C@@]34O)O2", "12.6 µM (active)"],
  ["C[C@@]12C(=O)OC(=O)[C@@]1(C)[C@H]1CC[C@@H]2O1", "3.16 µM (active)"]
]}

---

Target: Cytochrome P450 2D6 (Homo sapiens) (UniProt P10635)
Sequence (P10635 whole entry, looked up): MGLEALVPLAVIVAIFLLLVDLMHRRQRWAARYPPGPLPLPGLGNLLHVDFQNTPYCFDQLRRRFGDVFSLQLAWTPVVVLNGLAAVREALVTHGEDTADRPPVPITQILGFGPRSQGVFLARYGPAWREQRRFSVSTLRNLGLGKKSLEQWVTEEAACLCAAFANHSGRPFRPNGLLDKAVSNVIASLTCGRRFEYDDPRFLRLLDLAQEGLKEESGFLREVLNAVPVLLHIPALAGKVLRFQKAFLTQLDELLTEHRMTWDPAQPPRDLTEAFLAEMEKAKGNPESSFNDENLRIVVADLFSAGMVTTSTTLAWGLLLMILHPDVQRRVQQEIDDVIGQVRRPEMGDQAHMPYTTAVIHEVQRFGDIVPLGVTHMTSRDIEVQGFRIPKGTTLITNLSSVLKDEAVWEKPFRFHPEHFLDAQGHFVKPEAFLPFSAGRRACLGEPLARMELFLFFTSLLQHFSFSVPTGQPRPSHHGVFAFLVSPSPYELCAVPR
Test: qHTS Assay for Inhibitors and Substrates of Cytochrome P450 2D6 (AID 891); further: nearly all actives have a fitted effect of over 60% in size
Settings: recombinant CYP2D6, luciferin-ME EGE luminescence; series mostly up to 11.4 µM
Records with an inconclusive call do not appear. The source made the active and inactive calls. Calls come from the whole dose curve; as a rule, active = well fitted inhibition curve with a large enough effect; inconclusive = small, poorly fitted or top-dose-only effect; inactive = no such curve, though single readings can be large or run the other way.
Possible outcomes: YES = active, NO = inactive

{"columns": ["Query Smiles", "Class"],
 "data": [
  ["CC(CCC(=O)O)(c1ccc(O)cc1)c1ccc(O)cc1", "NO"],
  ["O=C(O)c1nn(-c2ccccc2-c2n[nH]c(=O)[nH]c2=O)c(=O)[nH]c1=O", "NO"],
  ["CCNC(=O)[C@@H]1O[C@@H](n2cnc3c(NCc4ccccc4)ncnc32)[C@@H](O)[C@H]1O", "NO"],
  ["N/C(CC/C(N)=N/O)=N\\O", "NO"],
  ["NNC(=O)c1ccc[n+](CCc2ccccc2)c1", "YES"],
  ["CC(C)(C)NCC[C@@H](O)c1cc(C(F)(F)F)nc2c(C(F)(F)F)cccc12", "YES"],
  ["COc1ccc(-c2csc3c2[N+]2=CCC=C2C3=O)cc1", "YES"],
  ["CCOC(=S)SCC(=O)O", "NO"],
  ["CC(CC(=O)O)(CC(=O)O)C(=O)O", "NO"],
  ["CCNc1ncc2nc(CCc3ccccc3)c(=O)n(-c3ccc(OC)cc3)c2n1", "YES"],
  ["Cc1cc(C(C)(C)C)c(OCCCN2CCOCC2)c(C(C)(C)C)c1", "YES"]
]}
